Test system: 361931-004-R-J1-PDC multicell spheroid viability
test-protocol: Anticancer human tumor 361931-004-R-J1-PDC patient-derived colon adenocarcinoma cell line growth inhibition [PI3K]
particulars: compound 0.00316 µM; stronger effect = lower value
attribute-measured: viability, T/C

Use these answered entries as a reference point.
CC(=O)c1c(C)c2cnc(Nc3ccc(N4CCNCC4)cn3)nc2n(C2CCCC2)c1=O    100% [middle of 4 runs]
Cn1ncnc1[C@H]1c2n[nH]c(=O)c3cc(F)cc(c23)N[C@@H]1c1ccc(F)cc1    96.5% [middle of 4 runs]
CC(Nc1ccc2c(c1)OCCn1cc(N3C(=O)OCC3C(F)F)nc1-2)C(N)=O (centres undefined)    98.9% [middle of 8 runs]

Turning now to a further compound:
Enter reported viability, T/C observed with 361931-004-R-J1-PDC multicell spheroid viability for COc1c(OCCCN2CCOCC2)ccc2c3n(c(=NC(=O)c4cnc(N)nc4)nc12)CCN3
102% [middle of 8 runs]

---

Attribute: viability, T/C
System: 361931-004-R-J1-PDC multicell spheroid viability
test-protocol: Anticancer human tumor 361931-004-R-J1-PDC cell line growth inhibition [PI3K];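 further: spheroids exposed to agents for seven days before readout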
particulars: second compound 1 µM; first compound 10 µM; stronger effect = lower value
From the text: Combinatorial screen of targeted agents with the PI3K inhibitors inavolisib, alpelisib, duvelisib, and copanlisib in multi-cell type tumor spheroids A high-throughput screen of multi-cell type tumor spheroids was designed to identify active combinations of targeted small molecules and PI3K pathway inhibitors. […] Compounds. […] If the clinical Cmax for an agent had not been determined, the highest concentration tested was 10 microM. […]
Please reply with the bare figure in % and do not write the unit itself.

Use these answered entries as a reference point.
Cn1nccc1Nc1nccc(-c2ccn(C(CO)c3ccc(Cl)c(F)c3)c(=O)c2)n1 (stereo not given) + CC(Nc1ccc2c(c1)OCCn1cc(N3C(=O)OCC3C(F)F)nc1-2)C(N)=O    9.78
C#Cc1c(F)ccc2cc(O)cc(-c3ncc4c(N5CC6CCC(C5)N6)nc(OCC56CCCN5CC(F)C6)nc4c3F)c12 (stereo not given) + Cc1nc(NC(=O)N2CCCC2C(N)=O)sc1-c1ccnc(C(C)(C)C(F)(F)F)c1    58.6
CNC(=O)c1ccc(N2C(=S)N(c3ccc(C#N)c(C(F)(F)F)c3)C(=O)C2(C)C)cc1F + CC(Nc1ncnc2nc[nH]c12)c1cc2cccc(Cl)c2c(=O)n1-c1ccccc1    97.2

Enter reported viability, T/C observed with 361931-004-R-J1-PDC multicell spheroid viability for C[C@@H](NC(=O)c1ncnc(N)c1Cl)c1ncc(C(=O)Nc2cc(C(F)(F)F)c(Cl)cn2)s1 + CC(Nc1ncnc2nc[nH]c12)c1cc2cccc(Cl)c2c(=O)n1-c1ccccc1
91.7

Then this molecule: CCCS(=O)(=O)Nc1ccc(F)c(C(=O)c2c[nH]c3ncc(-c4ccc(Cl)cc4)cc23)c1F + CC(Nc1ccc2c(c1)OCCn1cc(N3C(=O)OCC3C(F)F)nc1-2)C(N)=O
2.59

---

Tested on: 361931-004-R-J1-PDC multicell spheroid viability
test-protocol: Anticancer human tumor 361931-004-R-J1-PDC cell line growth inhibition [PI3K];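 further: spheroids exposed to agents for seven days before readout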
particulars: second compound 1 µM; first compound 1 µM; stronger effect = lower value
Lab note - cut at 60% for viability, T/C: criterion met if strictly below, criterion not met if not.

Solved cases below.
CC1(C)CCC(Nc2ncc(C(F)(F)F)c(-c3c[nH]c4c(P(C)(C)=O)c(C#N)ccc34)n2)CN1 (stereo not given) + CC(Nc1ccc2c(c1)OCCn1cc(N3C(=O)OCC3C(F)F)nc1-2)C(N)=O    criterion met
CC(C)NCC(C(=O)N1CCN(c2ncnc3c2C(C)CC3O)CC1)c1ccc(Cl)cc1 (stereo not given) + Cc1nc(NC(=O)N2CCCC2C(N)=O)sc1-c1ccnc(C(C)(C)C(F)(F)F)c1    criterion met
CC(C)NCC(C(=O)N1CCN(c2ncnc3c2C(C)CC3O)CC1)c1ccc(Cl)cc1 (stereo not given) + COc1c(OCCCN2CCOCC2)ccc2c3n(c(=NC(=O)c4cnc(N)nc4)nc12)CCN3    criterion met
C[C@@H](NC(=O)c1ncnc(N)c1Cl)c1ncc(C(=O)Nc2cc(C(F)(F)F)c(Cl)cn2)s1 + CC(Nc1ncnc2nc[nH]c12)c1cc2cccc(Cl)c2c(=O)n1-c1ccccc1    criterion not met

Decide: viability, T/C of Cn1nccc1Nc1nccc(-c2ccn(C(CO)c3ccc(Cl)c(F)c3)c(=O)c2)n1 (stereo not given) + CC(Nc1ncnc2nc[nH]c12)c1cc2cccc(Cl)c2c(=O)n1-c1ccccc1 strictly below 60%?
criterion not met

---

Tested on: 361931-004-R-J1-PDC multicell spheroid viability
test-protocol: Anticancer human tumor 361931-004-R-J1-PDC cell line growth inhibition [PI3K];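 further: spheroids exposed to agents for seven days before readout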
particulars: curve of first compound; second compound 0.0316 µM
Description: Combinatorial screen of targeted agents with the PI3K inhibitors inavolisib, alpelisib, duvelisib, and copanlisib in multi-cell type tumor spheroids A high-throughput screen of multi-cell type tumor spheroids was designed to identify active combinations of targeted small molecules and PI3K pathway inhibitors. […] Compounds. […] If the clinical Cmax for an agent had not been determined, the highest concentration tested was 10 microM. […]
pIC50: −log10 of the molar value.
attribute-measured: pIC50

# get_value(readout='pIC50', item= CCN1CCN(Cc2ccc(Nc3ncc(F)c(-c4cc(F)c5nc(C)n(C(C)C)c5c4)n3)nc2)CC1 + CC(Nc1ccc2c(c1)OCCn1cc(N3C(=O)OCC3C(F)F)nc1-2)C(N)=O )
< 6.00

Then this molecule: Cn1ncc(Cl)c1-c1cc(C(=O)NC(CN)Cc2cccc(F)c2)sc1Cl (stereo unspecified) + COc1c(OCCCN2CCOCC2)ccc2c3n(c(=NC(=O)c4cnc(N)nc4)nc12)CCN3
5.74

Then this molecule: CC(Cn1ccc(-c2ccc(C#N)c(Cl)c2)n1)NC(=O)c1cc(C(C)O)[nH]n1 (stereo unspecified) + CC(Nc1ccc2c(c1)OCCn1cc(N3C(=O)OCC3C(F)F)nc1-2)C(N)=O
< 5.00

Then this molecule: C=CC(=O)N1CCN(c2nc(=O)n(-c3c(C)ccnc3C(C)C)c3nc(-c4c(O)cccc4F)c(F)cc23)C(C)C1 (stereo unspecified) + COc1c(OCCCN2CCOCC2)ccc2c3n(c(=NC(=O)c4cnc(N)nc4)nc12)CCN3
< 5.00

Then this molecule: CC(C)n1nc(-c2ccc3oc(N)nc3c2)c2c(N)ncnc21 + Cc1nc(NC(=O)N2CCCC2C(N)=O)sc1-c1ccnc(C(C)(C)C(F)(F)F)c1
< 7.00

Then this molecule: CNC(=O)c1ccc(N2C(=S)N(c3ccc(C#N)c(C(F)(F)F)c3)C(=O)C2(C)C)cc1F + COc1c(OCCCN2CCOCC2)ccc2c3n(c(=NC(=O)c4cnc(N)nc4)nc12)CCN3
< 5.00

Then this molecule: Cn1ncnc1[C@H]1c2n[nH]c(=O)c3cc(F)cc(c23)N[C@@H]1c1ccc(F)cc1 + CC(Nc1ccc2c(c1)OCCn1cc(N3C(=O)OCC3C(F)F)nc1-2)C(N)=O
< 7.00

Then this molecule: Cn1ncnc1[C@H]1c2n[nH]c(=O)c3cc(F)cc(c23)N[C@@H]1c1ccc(F)cc1 + Cc1nc(NC(=O)N2CCCC2C(N)=O)sc1-c1ccnc(C(C)(C)C(F)(F)F)c1
< 7.00

Then this molecule: CC(C)NCC(C(=O)N1CCN(c2ncnc3c2C(C)CC3O)CC1)c1ccc(Cl)cc1 (stereo unspecified) + COc1c(OCCCN2CCOCC2)ccc2c3n(c(=NC(=O)c4cnc(N)nc4)nc12)CCN3
5.63

Then this molecule: Cn1ncc(Cl)c1-c1cc(C(=O)NC(CN)Cc2cccc(F)c2)sc1Cl (stereo unspecified) + Cc1nc(NC(=O)N2CCCC2C(N)=O)sc1-c1ccnc(C(C)(C)C(F)(F)F)c1
5.88

Then this molecule: CC(C)n1nc(-c2ccc3oc(N)nc3c2)c2c(N)ncnc21 + CC(Nc1ncnc2nc[nH]c12)c1cc2cccc(Cl)c2c(=O)n1-c1ccccc1
< 7.00

---

Test system: 361931-004-R-J1-PDC multicell spheroid viability
test-protocol: Anticancer human tumor 361931-004-R-J1-PDC cell line growth inhibition [PI3K];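 further: spheroids exposed to agents for seven days before readout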
particulars: second compound 1 µM; first compound 0.1 µM; stronger effect = lower value
Lab note - cut at 30% for viability, T/C: rule met if strictly below, rule not met if not.

C=CC(=O)N1CCN(c2nc(=O)n(-c3c(C)ccnc3C(C)C)c3nc(-c4c(O)cccc4F)c(F)cc23)C(C)C1 (stereo not given) + COc1c(OCCCN2CCOCC2)ccc2c3n(c(=NC(=O)c4cnc(N)nc4)nc12)CCN3    rule met
Cn1ncnc1[C@H]1c2n[nH]c(=O)c3cc(F)cc(c23)N[C@@H]1c1ccc(F)cc1 + Cc1nc(NC(=O)N2CCCC2C(N)=O)sc1-c1ccnc(C(C)(C)C(F)(F)F)c1    rule not met
CC1(C)CCC(Nc2ncc(C(F)(F)F)c(-c3c[nH]c4c(P(C)(C)=O)c(C#N)ccc34)n2)CN1 (stereo not given) + COc1c(OCCCN2CCOCC2)ccc2c3n(c(=NC(=O)c4cnc(N)nc4)nc12)CCN3    rule met

Okay, next one:
Decide: viability, T/C of Cn1nccc1Nc1nccc(-c2ccn(C(CO)c3ccc(Cl)c(F)c3)c(=O)c2)n1 (stereo not given) + COc1c(OCCCN2CCOCC2)ccc2c3n(c(=NC(=O)c4cnc(N)nc4)nc12)CCN3 strictly below 30%?
rule met
